- System: MT2
- assay-context: human
- Description: Cytotoxicity against human MT2 cells by XTT assay
Label Y when CC50 is strictly below 30 µM; otherwise label N.

**Query** Lab note: CC50 threshold 30 µM. Does this molecule come in strictly under it? C=C(COCCc1ccc(Br)cc1)[C@@H]1CC[C@]2(C(=O)N[C@@H](CC(C)C)C(=O)O)CC[C@]3(C)[C@H](CC[C@@H]4[C@@]5(C)CC[C@H](O)C(C)(C)[C@@H]5CC[C@]43C)[C@@H]12
**Result** Y

Continuing:
**Query** Lab note: CC50 threshold 30 µM. Does this molecule come in strictly under it? C=C(C)[C@@H]1CC[C@]2(C(=O)N3CCC(CCCC(=O)NCCN4CCOCC4)CC3)CC[C@]3(C)[C@H](CC[C@@H]4[C@@]5(C)CC[C@H](OC(=O)CC(C)(C)C(=O)O)C(C)(C)[C@@H]5CC[C@]43C)[C@@H]12
**Result** Y

**Query** Lab note: CC50 threshold 30 µM. Does this molecule come in strictly under it? C=C(COCCc1ccc(Cl)cc1)[C@@H]1CC[C@]2(C(=O)N[C@@H](CC(C)C)C(=O)O)CC[C@]3(C)[C@H](CC[C@@H]4[C@@]5(C)CC[C@H](O)C(C)(C)[C@@H]5CC[C@]43C)[C@@H]12
**Result** N

**Query** Lab note: CC50 threshold 30 µM. Does this molecule come in strictly under it? C=C(CBr)[C@@H]1CC[C@]2(C(=O)N[C@@H](CC(C)C)C(=O)O)CC[C@]3(C)[C@H](CC[C@@H]4[C@@]5(C)CC[C@H](O)C(C)(C)[C@@H]5CC[C@]43C)[C@@H]12
**Result** Y

**Query** Lab note: CC50 threshold 30 µM. Does this molecule come in strictly under it? C=C(C)[C@@H]1CC[C@]2(C(=O)N3CCC(CCCC(=O)O)CC3)CC[C@]3(C)[C@H](CC[C@@H]4[C@@]5(C)CC[C@H](OC(=O)CC(C)(C)C(=O)O)C(C)(C)[C@@H]5CC[C@]43C)[C@@H]12
**Result** Y

**Query** Lab note: CC50 threshold 30 µM. Does this molecule come in strictly under it? C=C(COCCN1CCOCC1)[C@@H]1CC[C@]2(C(=O)NCCCCCCCC(=O)NC)CC[C@]3(C)[C@H](CC[C@@H]4[C@@]5(C)CC[C@H](O)C(C)(C)[C@@H]5CC[C@]43C)[C@@H]12
**Result** Y

**Query** Lab note: CC50 threshold 30 µM. Does this molecule come in strictly under it? C=C(COCCc1ccccc1)[C@@H]1CC[C@]2(C(=O)N[C@@H](CC(C)C)C(=O)O)CC[C@]3(C)[C@H](CC[C@@H]4[C@@]5(C)CC[C@H](O)C(C)(C)[C@@H]5CC[C@]43C)[C@@H]12
**Result** Y

**Query** Lab note: CC50 threshold 30 µM. Does this molecule come in strictly under it? C=C(C)[C@@H]1CC[C@]2(C(=O)N3CCC(CCCC(=O)O)CC3)CC[C@]3(C)[C@H](CC[C@@H]4[C@@]5(C)CC[C@H](OC(=O)CCC(C)(C)C(=O)O)C(C)(C)[C@@H]5CC[C@]43C)[C@@H]12
**Result** N

From: ChEMBL document CHEMBL1138499
